Tested on: KRas wild type
Experiment: Ras GTP binding domain inhibition assay (Cy3-GTP/Cy5-GTP competition)
Parameters: species or system human
Conditions: 20 μM; without SOS
Quantity Name: KRas wild type: % inh.

{"Compound": "COc1cccc(Cn2ccnc2-c2nc(O)c3scc(-c4ccccn4)c3n2)c1 [drawing 850]", "Tested On": "KRas wild type", "Experimental Value": "C (51-75% inhibition)"}
{"Compound": "CC(C)CN(C)C(=O)c1nc(-c2ccccn2)nc(O)c1O [drawing 798]", "Tested On": "KRas wild type", "Experimental Value": "B (26-50% inhibition)"}
{"Compound": "O=C(c1nc(-c2ccccn2)nc(O)c1O)N1CCc2ccccc2C1 [drawing 832]", "Tested On": "KRas wild type", "Experimental Value": "C (51-75% inhibition)"}
{"Compound": "COc1cccc(-c2sc3nc(-c4nccn4C)nc(N4CCC(OC)C4)c3c2-c2ccccc2)c1F.Cl (stereo not shown) [drawing 838]", "Tested On": "KRas wild type", "Experimental Value": "C (51-75% inhibition)"}
{"Compound": "COC1CCN(c2nc(-c3nccn3C)nc3sc(-c4cnc(C5CC5)o4)c(-c4ccccc4)c23)C1.Cl (stereo not shown)", "Tested On": "KRas wild type", "Experimental Value": "C (51-75% inhibition)"}
{"Compound": "Cc1cnc(-c2nc(O)c3scc(-c4ccccn4)c3n2)n1C [drawing 808]", "Tested On": "KRas wild type", "Experimental Value": "C (51-75% inhibition)"}
{"Compound": "COc1cccc(Oc2nc(-c3ccccn3)nc(O)c2OC)c1 [drawing 801]", "Tested On": "KRas wild type", "Experimental Value": "D (76-100% inhibition)"}
{"Compound": "COc1nscc1-c1sc2nc(-c3nccn3C)nc(N3CCC(OC)C3)c2c1-c1ccccc1.Cl (stereo not shown)", "Tested On": "KRas wild type", "Experimental Value": "B (26-50% inhibition)"}
{"Compound": "O=C(NC1CCC1)c1nc(-c2ccccn2)nc(O)c1O [drawing 809]", "Tested On": "KRas wild type", "Experimental Value": "D (76-100% inhibition)"}
{"Compound": "COc1c(O)nc(-c2ccccn2)nc1Oc1ccccc1 [drawing 813]", "Tested On": "KRas wild type", "Experimental Value": "D (76-100% inhibition)"}
{"Compound": "O=C(NC1CCCC1)c1nc(-c2ccccn2)nc(O)c1O [drawing 812]", "Tested On": "KRas wild type", "Experimental Value": "D (76-100% inhibition)"}
{"Compound": "CO[C@H]1CCC(Nc2nc(-c3nccn3C)nc3sc(-c4ccn(C)n4)c(-c4ccccc4)c23)C1 (stereo partly shown) [drawing 860]", "Tested On": "KRas wild type", "Experimental Value": "B (26-50% inhibition)"}
{"Compound": "COc1c(O)nc(-c2ccccn2)nc1Oc1cnn(C)c1 [drawing 803]", "Tested On": "KRas wild type", "Experimental Value": "D (76-100% inhibition)"}
{"Compound": "COCC(C)Nc1nc(-c2nccn2C)nc2sc(-c3ccn(C)n3)c(-c3ccccc3)c12 (stereo not shown) [drawing 864]", "Tested On": "KRas wild type", "Experimental Value": "0 (0% inhibition)"}
{"Compound": "COCCNc1nc(-c2nccn2C)nc2sc(-c3ccccc3Cl)c(-c3ccc(OC)cc3)c12 [drawing 876]", "Tested On": "KRas wild type", "Experimental Value": "B (26-50% inhibition)"}
